Target: Nuclear receptor subfamily 1 group I member 2 (Rattus norvegicus)
Experiment: Rat pregnane X receptor (rPXR) activation by small molecules, qHTS assay (AID 1346983); also: % is scaled to controls: 0 for no effect and ±100 for the full control effect; nearly all actives have a fitted effect of over 20% in size
Conditions: rPXR luciferase reporter cells, One-Glo luminescence, 24 h; hits give high values
Source text: National Center for Advancing Translational Sciences [NCATS] NIH Chemical Genomics Center [NCGC] U.S. Environmental Protection Agency [EPA] National Institutes of Environmental Health Sciences [NIEHS] National Toxicology Program [NTP] Assay overview: The Pregnane X receptor (PXR), a ligand activated nuclear receptor plays a critical role in the regulation of genes involved in drug metabolism and transporters. […]
Records with an inconclusive call do not appear.
Readout: max activation (%)
Dear colleague, please return just the value in %, with no unit written.

CC(=O)OCC(CCn1cnc2cnc(N)nc21)COC(C)=O: -0.776
Cc1[nH]c(=O)c(C#N)cc1-c1ccc2nccn2c1: 0.264
O=c1[nH]c(=O)n([C@H]2C[C@H](O)[C@@H](CO)O2)cc1I: 6.42
N[C@H](C(=O)O)c1ccc(O)cc1: -1.63
CN(C)CCCSc1ccccc1NC(=O)/C=C/c1ccccc1: 2.69
COC(=O)[C@@H](N)Cc1ccc(O)c(O)c1: -6.8
CCCCOCCOCCOCc1cc2c(cc1CCC)OCO2: -0.229
CC(=O)Nc1c(I)cc(I)c(C(=O)O)c1I: -2.53

Exercise: // lookup max activation | system=Nuclear receptor subfamily 1 group I member 2 (Rattus norvegicus) | key= CCOc1ccc(C(=O)OCCN(CC)CC)cc1
Solution: -2.52

Exercise: // lookup max activation | system=Nuclear receptor subfamily 1 group I member 2 (Rattus norvegicus) | key= Cc1cc(O)cc2c1O[C@](C)(CCC[C@H](C)CCC[C@H](C)CCCC(C)C)CC2
Solution: -2.13

Exercise: // lookup max activation | system=Nuclear receptor subfamily 1 group I member 2 (Rattus norvegicus) | key= CC(C[N+](C)(C)C)OC(N)=O (configuration not stated)
Solution: 0.875

Exercise: // lookup max activation | system=Nuclear receptor subfamily 1 group I member 2 (Rattus norvegicus) | key= O=C(O)COc1nn(Cc2ccccc2)c2ccccc12
Solution: -0.954

----------
Experiment: qHTS assay to identify small molecule agonists of the constitutive androstane receptor (CAR) signaling pathway - cell viability counter screen (AID 1224836); also: % is scaled to controls: 0 for no effect and ±100 for the full control effect; nearly all actives have a fitted effect of over 45% in size
Conditions: HepG2-CYP2B6-hCAR viability, CellTiter-Fluor, 23 h, PK11195 added to every well; series mostly up to 92.4 µM
Inconclusive results are not listed. The source made the active and inactive calls. Calls follow the shape of the dose curve; as a rule, active = well fitted cell-killing curve with a large enough effect in the repeat runs; inconclusive = weak or mixed curves, or effect the other way; inactive = flat fitted curve, though single readings scatter.
Readout: viability change, negative = cytotoxic

# example entries with known answers
CCOC(=O)c1cccc(N)c1: inactive
CN1N=C(C(N)=O)CCC1=O: inactive
CC(=O)OCC(=O)[C@@]1(O)CC[C@H]2[C@@H]3CCC4=CC(=O)CC[C@]4(C)[C@H]3C(=O)C[C@@]21C: inactive
C[N+](C)(C)CCCCCC[N+](C)(C)C: inactive

// below: viability change, negative = cytotoxic requested for another compound
Exercise: Requested field: viability change, negative = cytotoxic. Item: CCO/C([O-])=N/c1c[n+](N2CCOCC2)no1
Solution: inactive

----------
Experiment: qHTS assay to identify small molecule antagonists of the estrogen related receptor signaling pathway with the pleiotropic PPARgamma coactivator (PGC) from Tox21 10K library - cell viability counter screen (AID 1224840); also: % is scaled to controls: 0 for no effect and ±100 for the full control effect; nearly all actives have a fitted effect of over 40% in size
Settings: PGC/ERR reporter cells viability, CellTiter-Fluor, 17.5 h; series mostly up to 92.4 µM
Inconclusive results are not listed. Activity calls are given as the source filed them. The call rests on the fitted dose curve; in most records, active means well fitted cell-killing curve with a large enough effect in the repeat runs (not every such curve was filed as active); inconclusive means weak or mixed curves, or effect the other way; inactive means no such curve, though single readings can be large or run the other way.
Readout: viability change, negative = cytotoxic

COCCCOCCCOC: inactive
C=C(C)C(=O)OCCCCCCCC(C)C: inactive
NC(=O)c1ccc(N)cc1: inactive
CN(C)CCCNCCCN(C)C: inactive
CC(=O)N(CC(O)CO)c1c(I)c(C(=O)NCCO)c(I)c(C(=O)NCC(O)CO)c1I (configuration not stated): inactive
Cc1cc(O)cc2c1O[C@](C)(CCC[C@H](C)CCC[C@H](C)CCCC(C)C)CC2: inactive

Exercise: Requested field: viability change, negative = cytotoxic. Item: FC1(F)C(F)(F)C(F)(F)C2(F)C(F)(F)C(F)(F)C(F)(F)C(F)(F)C2(F)C1(F)F (configuration not stated)
Solution: inactive

Exercise: Requested field: viability change, negative = cytotoxic. Item: COc1c(N2C[C@@H]3CCCN[C@@H]3C2)c(F)cc2c(=O)c(C(=O)O)cn(C3CC3)c12
Solution: inactive

Exercise: Requested field: viability change, negative = cytotoxic. Item: CO/N=C(/C(=O)N[C@@H]1C(=O)N2C(C(=O)OCOC(=O)C(C)(C)C)=C(C)CS[C@H]12)c1csc(N)n1
Solution: inactive

Exercise: Requested field: viability change, negative = cytotoxic. Item: Nc1c[n+](N2CCOCC2)no1
Solution: inactive

Exercise: Requested field: viability change, negative = cytotoxic. Item: CC(C)NCCCC1(C(N)=O)c2ccccc2-c2ccccc21
Solution: inactive

Exercise: Requested field: viability change, negative = cytotoxic. Item: CCCCOCCOCCOCc1cc2c(cc1CCC)OCO2
Solution: inactive

----------
Assay: qHTS assay to identify small molecule agonists of the AP-1 signaling pathway (AID 1159526); also: % is scaled to controls: 0 for no effect and ±100 for the full control effect
Conditions: ME-180 (cervical carcinoma) AP-1-bla reporter, beta-lactamase FRET ratio, 5 h; series mostly up to 35.3 µM
Inconclusive results are not listed. Calls of active or inactive are those of the source. The call rests on the fitted dose curve.
Readout: activation

CCOC(=O)CC(C)=O: inactive
O=C(O)COc1nn(Cc2ccccc2)c2ccccc12: inactive
CC1=CC(C)C(C=O)CC1 (stereo not drawn): inactive
Nc1c[n+](N2CCOCC2)no1: inactive
O=C1NC(=O)[C@@]2(CCOc3ccc(F)cc32)N1: inactive

Exercise: Requested field: activation. Item: OC(CCN1CCCCC1)(c1ccccc1)C1CC2C=CC1C2 (stereo not drawn)
Solution: inactive

Exercise: Requested field: activation. Item: NS(=O)(=O)c1cc(C(=O)NN2C[C@H]3[C@H]4CCC(C4)[C@H]3C2)ccc1Cl
Solution: inactive

Exercise: Requested field: activation. Item: Cc1ccc(=O)n(-c2ccccc2)c1
Solution: inactive

Exercise: Requested field: activation. Item: Cn1cc(S(C)=O)c(=O)c2ccc(F)cc21 (stereo not drawn)
Solution: inactive

Exercise: Requested field: activation. Item: COc1nc(N)nc2c1ncn2[C@@H]1O[C@H](CO)[C@@H](O)[C@@H]1O
Solution: inactive

----------
Test: qHTS RealTime-Glo MT Cell Viability Assay in HepG2 cells - 32 hour (AID 1224877); also: % is scaled to controls: 0 for no effect and ±100 for the full control effect; nearly all actives have a fitted effect of over 55% in size
Conditions: RealTime-Glo luminescence; series mostly up to 76.8 µM
Inconclusive results are not listed. Activity calls are given as the source filed them. Calls follow the shape of the dose curve; as a rule, active = well fitted cell-killing curve with a large enough effect in the repeat runs; inconclusive = weak or mixed curves; inactive = flat fitted curve, though single readings scatter.
Readout: activity change, negative = cytotoxic

# example entries with known answers
CC(=O)CC(C)C: inactive
ClC(Cl)(Br)Br: inactive
CCc1nccnc1CC: -1.59% [at 15.8 µM] (inactive)
Cc1[nH]c(=O)c(C#N)cc1-c1ccc2nccn2c1: inactive
CC(=O)OCC(=O)[C@@]1(O)CC[C@H]2[C@@H]3CCC4=CC(=O)CC[C@]4(C)[C@H]3C(=O)C[C@@]21C: inactive
CCN(Cc1ccncc1)C(=O)C(CO)c1ccccc1 (configuration not stated): inactive

// below: activity change, negative = cytotoxic requested for another molecule
Exercise: Requested field: activity change, negative = cytotoxic. Item: O=Cc1cccc([N+](=O)[O-])c1
Solution: inactive

----------
Target: Cytochrome P450 2C9 (Homo sapiens) (UniProt P11712)
Sequence (P11712 whole entry, looked up): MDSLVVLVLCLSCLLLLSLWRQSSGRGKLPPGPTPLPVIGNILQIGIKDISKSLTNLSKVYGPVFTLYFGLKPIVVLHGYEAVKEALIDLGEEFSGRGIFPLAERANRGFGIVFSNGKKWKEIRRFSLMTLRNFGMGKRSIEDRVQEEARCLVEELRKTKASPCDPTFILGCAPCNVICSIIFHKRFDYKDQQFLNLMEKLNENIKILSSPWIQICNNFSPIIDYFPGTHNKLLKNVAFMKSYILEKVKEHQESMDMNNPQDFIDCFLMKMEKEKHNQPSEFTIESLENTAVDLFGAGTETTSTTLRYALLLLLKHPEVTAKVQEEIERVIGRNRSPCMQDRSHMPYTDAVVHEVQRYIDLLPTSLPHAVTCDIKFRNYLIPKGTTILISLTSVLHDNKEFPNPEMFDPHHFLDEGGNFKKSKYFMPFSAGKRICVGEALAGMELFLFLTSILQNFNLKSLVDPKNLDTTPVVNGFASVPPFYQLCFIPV
Experiment: Cytochrome P450 Family 2 Subfamily C Member 9 (CYP2C9) small molecule antagonists: luciferase reporter qHTS assay (AID 1671198); also: nearly all actives have a fitted effect of over 50% in size
Settings: P450-Glo CYP2C9 enzyme assay, luciferin luminescence; series mostly up to 115 µM
Results filed as inconclusive are left out. Calls of active or inactive are those of the source. Calls come from the whole dose curve; as a rule, active = well fitted inhibition curve with a large enough effect in the repeat runs; inconclusive = weak or mixed curves; inactive = no such curve, though single readings can be large or run the other way.
Write down one outcome, taken from active, inactive

CC1=CC(C)C(C=O)CC1 (configuration not stated): inactive
CC(C)CCCC(C)N (configuration not stated): inactive
CCN1CCC[C@H]1CNC(=O)c1c(O)c(Cl)cc(Cl)c1OC: inactive
CCCN(CCC)CCc1cccc2c1CC(=O)N2: inactive
COc1ccc2c(c1)CCCC2=O: inactive

Exercise: Query: recorded result category for CC(C)=CCCC(C)CC(=O)O (configuration not stated) in this test
Solution: active

Exercise: Query: recorded result category for C=CCOCC(CC)(CO)COCC=C in this test
Solution: active

Exercise: Query: recorded result category for CCOC(=O)CCC(C)=O in this test
Solution: inactive

Exercise: Query: recorded result category for CC/C=C\CC/C=C/C(OCC)OCC in this test
Solution: active

Exercise: Query: recorded result category for c1ccc([C@H]2CN3CCSC3=N2)cc1 in this test
Solution: inactive

Exercise: Query: recorded result category for CCCCOCCOCCOCCCC in this test
Solution: inactive

Exercise: Query: recorded result category for Nc1c2c(nc3ccccc13)CCCC2O (configuration not stated) in this test
Solution: inactive

Exercise: Query: recorded result category for COc1c(N2C[C@@H]3CCCN[C@@H]3C2)c(F)cc2c(=O)c(C(=O)O)cn(C3CC3)c12 in this test
Solution: inactive

Exercise: Query: recorded result category for COC(=O)NN in this test
Solution: inactive

Exercise: Query: recorded result category for NS(=O)(=O)c1cc(C(=O)NN2C[C@H]3[C@H]4CCC(C4)[C@H]3C2)ccc1Cl in this test
Solution: inactive

Exercise: Query: recorded result category for CC(=O)CC(C)C in this test
Solution: inactive

Exercise: Query: recorded result category for OC[C@]1(O)OC[C@@H](O)[C@H](O)[C@@H]1O in this test
Solution: inactive

Exercise: Query: recorded result category for O=C(O)CCCl in this test
Solution: inactive

Exercise: Query: recorded result category for O=C(O)c1ccccc1OP(=O)(O)O in this test
Solution: inactive

Exercise: Query: recorded result category for O=C(CCCN1CCN(c2ccccn2)CC1)c1ccc(F)cc1 in this test
Solution: active

Exercise: Query: recorded result category for CC(C)(O)C(=O)c1ccccc1 in this test
Solution: inactive

Exercise: Query: recorded result category for O=c1n(CCO)c(=O)n(CCO)c(=O)n1CCO in this test
Solution: inactive

Exercise: Query: recorded result category for ClC(Cl)(Br)Br in this test
Solution: inactive

Exercise: Query: recorded result category for NC(=O)Nc1ccccc1 in this test
Solution: inactive

Exercise: Query: recorded result category for NS(=O)(=O)c1ccccc1Cl in this test
Solution: inactive

Exercise: Query: recorded result category for CO[Si](CCCOCC1CO1)(OC)OC (configuration not stated) in this test
Solution: inactive

Exercise: Query: recorded result category for O=c1[nH]c(=O)n([C@H]2C[C@H](O)[C@@H](CO)O2)cc1I in this test
Solution: inactive
